Where these numbers come from: BigSolDB 2.1

experimental-context: in acetonitrile, 288.15 K
quantity: solubility (mole fraction)

solubility (mole fraction) measured on "OC[C@@H](O)[C@@H](O)[C@H](O)[C@@H](O)CO" = 0.000153

###

experimental-context: in n-butanol, 293.15 K
quantity: solubility (mole fraction)

solubility (mole fraction) reported for this compound "OC[C@@H](O)[C@@H](O)[C@H](O)[C@@H](O)CO" : 0.000748
